The measurements presented in this section are drawn from patent US7897573B2.

Molecular target: Human VPAC2 Receptor (Homo sapiens)
Sequence (P41587 24-438): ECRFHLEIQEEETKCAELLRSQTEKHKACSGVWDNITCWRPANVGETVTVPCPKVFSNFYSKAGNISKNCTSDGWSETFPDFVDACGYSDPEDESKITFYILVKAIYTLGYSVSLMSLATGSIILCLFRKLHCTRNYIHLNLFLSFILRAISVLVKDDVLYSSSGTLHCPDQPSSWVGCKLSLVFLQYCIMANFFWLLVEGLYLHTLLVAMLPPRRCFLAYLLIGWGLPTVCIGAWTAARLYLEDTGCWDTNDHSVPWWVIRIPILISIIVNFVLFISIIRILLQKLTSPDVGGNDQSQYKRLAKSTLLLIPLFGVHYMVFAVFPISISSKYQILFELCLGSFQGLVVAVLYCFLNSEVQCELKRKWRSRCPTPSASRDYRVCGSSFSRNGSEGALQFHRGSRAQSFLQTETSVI
Assay: Alpha screen cAMP potency at human VPAC2 receptor
Format: cell-based
Details: cAMP generation; read-out: Human VPAC2 Receptor: Alphascreen (EC50; nM)
// returns label 0 unless EC50 is strictly below 100 nM, in which case label 1

For orientation, consider the following solved cases.
C6-HSDAVFTEQY(OMe)TOrnLRAibQC(PEG40K)AAbuAibOrnY(OMe)LQSIOrnOrnGGPSSGAPPPS-NH2 (HSDAVFTEQYTXLRXQCAXXXYLQSIXXGGPSSGAPPPS; C6 acyl, non-natural residues, PEG40K, C-terminal amide; Synthetic sequence PEGylated VPAC2 receptor agonist) [Agonist P586] : label 0
C6-HSDAVFTEQY(OMe)TOrnLRAibQC(PEG20K)AAAibOrnYLQSIOrnOrnGGPSSGAPPPC(PEG20K)-NH2 (HSDAVFTEQYTXLRXQCAAXXYLQSIXXGGPSSGAPPPC; C6 acyl, two PEG20K, C-terminal amide; Synthetic sequence PEGylated VPAC2 receptor agonist) [Agonist P568] : label 0
C6-HSDAVFTEQY(OMe)TOrnLRAibQVAAAibOrnYAibQSIOrnOrnGGPSSGAPPPC(PEG40K)-NH2 (HSDAVFTEQYTXLRXQVAAXXYXQSIXXGGPSSGAPPPC; C6 acyl, PEG40K on Cys, C-terminal amide; Synthetic sequence PEGylated VPAC2 receptor agonist) [Agonist P507] : label 1

Problem: Input C6-HSDAVFTEQY(OMe)TOrnLRAibQLAAbuAibOrnY(OMe)LQSIOrnC(PEG20K)OrnGGPSSGAPPPC(PEG20K)-NH2 (HSDAVFTEQYTXLRXQLAXXXYLQSIXCXGGPSSGAPPPC; C6 acyl, non-natural residues, two PEG20K, C-terminal amide; Synthetic sequence PEGylated VPAC2 receptor agonist) [Agonist P588] ; condition: EC50 strictly below 100 nM. Does it hold?
Solution: label 1

Problem: # check: EC50 < 100 nM for C6-HSDAVFTEK(CO(CH2)2SPEG40K)Y(OMe)TOrnLRAibQVAAAibOrnYLQSIOrnOrnGGPSSGAPPPS-NH2 (HSDAVFTEXYTXLRXQVAAXXYLQSIXXGGPSSGAPPPS; C6 acyl; PEG40K; non-natural residues; amide; Synthetic sequence PEGylated VPAC2 receptor peptide agonist) [Agonist P451]
Solution: label 1

Problem: Is 100 nM strictly greater than the substance's reported EC50? substance: C6-HSDAVFTEQY(OMe)TOrnLRAibQC(PEG40K)AAbuAibOrnY(OMe)LQAibIOrnOrnGGPSSGAPPPS-NH2 (HSDAVFTEQYTXLRXQCAXXXYLQXIXXGGPSSGAPPPS; C6 acyl, non-natural residues, PEG40K, C-terminal amide; Synthetic sequence PEGylated VPAC2 receptor agonist) [Agonist P578]
Solution: label 0
